settings: buffer; pH 7.4; 200.0 µM
Recorded solubility kinetic values for a group of compounds are listed next.
Number only, in µg/mL; omit the unit.

[[record]]
compound = "CC(C)C[C@H]1C(=O)N2CCCC2[C@]2(O)O[C@](NC(=O)[C@@H]3C=C4c5cccc6[nH]cc(c56)CC4N(C)C3)(C(C)C)C(=O)N12 (stereo not given in full)"
unitspec = "µg/mL"
valuereported = 24.1


Alright, here's another compound for you.
Given `C=CCOC(=O)/C(=C/c1cccnc1)NC(=O)c1ccccc1` , state its recorded solubility kinetic.
43.4

---

Recorded solubility kinetic values for a group of compounds are listed next.
settings: buffer; pH 7.4; 200.0 µM
Number only, in µg/mL; omit the unit.

Known solubility kinetic results, listed for orientation:
[[record]]
compound = "CCOc1ccc(NC(=O)CNC(=O)c2cccs2)cc1"
valuereported = 7.8

[[record]]
compound = "Cc1cccc(N2C(=O)C3C4C=CC(CC4)C3C2=O)c1 (stereo not drawn)"
valuereported = 33.5

[[record]]
compound = "O=C(NCc1ccccn1)Nc1ccc(Cl)cc1Cl"
valuereported = 9.2

[[record]]
compound = "O=C(Nc1nccs1)c1cc(Cl)nc2ccccc12"
valuereported = 5.2

[[record]]
compound = "Cc1ccc(Sc2cnccc2C#N)cc1"
valuereported = 15.4

[[record]]
compound = "O=C(c1c(F)cccc1F)N(C1CCCCC1)C1CCCCC1"
valuereported = 1


Alright, here's another compound for you.
Given `Cc1ccccc1C(=O)Nc1ccnc(-c2ccncc2)n1` , state its recorded solubility kinetic.
0.5
